# Test system: T1, human ALK7-EK-Fc comprising protein (human, UniProt Q8NER5 22-113)
# T1 construct: also called ALK7-Fc comprising protein; Human ALK7-Fc comprising protein; not shown: 'EK' segment between ALK7 and Fc; Fc portion
# T1 sequence: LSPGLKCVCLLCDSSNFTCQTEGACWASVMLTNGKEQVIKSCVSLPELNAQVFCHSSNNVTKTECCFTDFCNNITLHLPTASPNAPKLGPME
# Assay method text: SPR (Biacore T100/T200), antibody captured on FAB chip, ALK7-Fc protein as analyte, 1:1 model
Entries and their kon values follow.
Give just the numeric value; M⁻¹ s⁻¹ need not be written.

Give the measured kon of M01 (antibody, V domains shown, Kappa light chain is implied by the anti-kappa reagent and KappaSelect; In SPR the antibody was captured on a custom FAB chip; also called ALK7 mAb M01) VH: QLQLQESGPGLVKPSETLSLTCTVSGGSISSSAYYWAWIRQPPGKGLEWIGSIYLSGSTTYNPSLKSRVTISVDTSKNQFSLKLSSVTAADTAVYYCARDGRYQSRSPDYYYGMDVWGQGTTVTVSS VL: EIVLTQSPGTLSLSPGERATLSCRASQSVSDNYLAWYQQKPGQAPRLLIYGASNIATGIPDRFSGSGSGTDFTLTISRLEPEDFAVYYCASVFSYPFTFGGGTKVEIK .
43100

Follow-up entry: Q04 (antibody, V domains shown) VH: QVQLVQSGAEVKKPGASVKVSCKASGYTFAGYNMHWVRQAPGQGLEWVGIINPNSGWTNYAQKFQGRVTMTRDTSVSAAYMELSRLRSDDTAVYYCARDPVGARYEVFDYWGQGTLVTVSS VL: EIVMTQSPATLSVSPGERATLSCKASQSVSSNLAWYQQKPGQAPRLLIYGASTRATGIPARFSGSGSGTEFTLTISSLQSEDFAVYYCQQAVKFPLTFGGGTKVEIK
33100

Follow-up entry: P03 (antibody, V domains shown) VH: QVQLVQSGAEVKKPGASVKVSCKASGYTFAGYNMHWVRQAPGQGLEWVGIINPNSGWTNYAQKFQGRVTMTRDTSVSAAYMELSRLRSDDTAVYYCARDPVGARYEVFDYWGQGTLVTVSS VL: EIVMTQSPATLSVSPGERATLSCQASQSVSSNLAWYQQKPGQAPRLLIYGASTIATGIPARFSGSGSGTEFTLTISSLQSEDFAVYYCQQAYAFPLTFGGGTKVEIK
36600

Follow-up entry: N02 (antibody, V domains shown) VH: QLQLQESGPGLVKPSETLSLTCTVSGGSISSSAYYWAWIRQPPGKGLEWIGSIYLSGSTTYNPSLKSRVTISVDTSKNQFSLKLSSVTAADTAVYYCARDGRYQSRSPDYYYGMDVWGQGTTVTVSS VL: EIVLTQSPGTLSLSPGERATLSCRASQSVSSSYLAWYQQKPGQAPRLLIYGASSTAYGIPDRFSGSGSGTDFTLTISRLEPEDFAVYYCQQLVAYPFTFGGGTKVEIK
59800
